biological target: long form of human GPR120 (Homo sapiens, UniProt Q5NUL3); test: Human GPR120 DiscoveRx PathHunter Beta-Arrestin assay, Procedure β-arrestin A
Sequence (Q5NUL3 1-377 isoform Q5NUL3-1): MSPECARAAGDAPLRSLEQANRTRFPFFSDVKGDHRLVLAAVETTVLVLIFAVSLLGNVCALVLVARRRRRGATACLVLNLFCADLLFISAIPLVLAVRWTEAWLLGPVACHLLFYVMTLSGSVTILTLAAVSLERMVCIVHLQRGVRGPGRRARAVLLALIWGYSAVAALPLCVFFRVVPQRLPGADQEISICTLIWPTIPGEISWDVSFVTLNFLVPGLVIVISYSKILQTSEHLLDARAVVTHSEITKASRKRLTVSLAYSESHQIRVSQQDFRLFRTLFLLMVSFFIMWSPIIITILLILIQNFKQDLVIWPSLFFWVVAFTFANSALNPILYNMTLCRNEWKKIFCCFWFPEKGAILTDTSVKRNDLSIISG
Sequence (P32121 whole entry partner): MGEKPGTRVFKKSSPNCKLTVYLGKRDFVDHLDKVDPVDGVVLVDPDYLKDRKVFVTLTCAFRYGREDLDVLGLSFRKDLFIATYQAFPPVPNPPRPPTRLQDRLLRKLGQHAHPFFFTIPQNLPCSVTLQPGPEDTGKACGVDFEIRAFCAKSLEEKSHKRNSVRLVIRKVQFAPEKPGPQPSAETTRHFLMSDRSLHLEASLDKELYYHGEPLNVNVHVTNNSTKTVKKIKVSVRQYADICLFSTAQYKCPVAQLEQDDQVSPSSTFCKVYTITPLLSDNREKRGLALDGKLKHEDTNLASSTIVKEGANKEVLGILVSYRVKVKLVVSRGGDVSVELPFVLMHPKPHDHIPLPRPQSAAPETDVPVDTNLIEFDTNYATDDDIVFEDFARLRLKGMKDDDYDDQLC
Catalogue of EC50 values

Test smiles	Assayed target	EC50
Cc1c(CCC(=O)O)ccc(OCC2=C(c3ccc(F)c(F)c3)CCC2)c1C	long form of human GPR120 (Homo sapiens, UniProt Q5NUL3)	256 nM
Cc1cc(CCC(=O)O)ccc1OCC1=C(c2ccc(F)cc2F)CC(F)(F)C1	long form of human GPR120 (Homo sapiens, UniProt Q5NUL3)	104 nM
Cc1c(CCC(=O)O)ccc(OCC2=C(c3ccc(Cl)s3)CCC(F)(F)C2)c1C	long form of human GPR120 (Homo sapiens, UniProt Q5NUL3)	237 nM
Cc1ccc(C2=C(COc3ccc(CCC(=O)O)cc3C)CC(F)(F)CC2)cc1F	long form of human GPR120 (Homo sapiens, UniProt Q5NUL3)	73 nM

These measurements were taken from patent US11230526B1.
